Experiment: soluble fraction after stress (log2 fold change); higher = more stays soluble; pooled small domains, quantitative proteomics
Details: stress: pH 4
Given measured soluble fraction (log2), output 1.0 if it is greater than or equal to -0.4 and 0.0 if not.

Illustrative cases are given below, each with its answer.
1) HMEFQSIGGKIRIGREREHLTQAELAQKLSVTRQAVSNWERDKTLPDIYMIREIAEIFGLTLDEFMEGAKK = 1.0
2) HMQQTAEDWKNKGDSLTAQSEYVEAIAAYDEAIRLDPNYAPAWSNKGNALKNLGEYYKAIQAYDEAIRL = 0.0
3) HMLSDEEKMAALNEQARQRGFTISPGVLPYLITHYQRDMHSLSMILDALDRYSLQTKRTITLPLLHDLLQQ = 1.0
4) HMVDPRLRSLTPQERRILEHIAEGLTNRQIAEDMFLAEKTVKNYVTSILDKLGMDSRTQAAVYAATHPT = 0.0

Consider now this further sequence.
Asked: Exam item: decide whether the reported soluble fraction (log2) for `HMTFNEPSPKEIMDYSLSRGYKVDADAFIDFYRGKAKAYGKEGLWLDGRGRLVKDWRAKLRVVWFKDENKL` is at least -0.4.
Given back: 0.0

----------
Assay: soluble fraction after stress (log2 fold change); higher = more stays soluble; pooled small domains, quantitative proteomics
Details: stress: pH 4
Given measured soluble fraction (log2), output satisfied if it is greater than or equal to -0.1 and not satisfied if not.

Illustrative cases are given below, each with its answer.
1) HMPAASDALAGELAQIARLDIAKLLAGDLSEADWSRITSATVQLSERHPDASDELTALVERIDTAYSARAT = not satisfied
2) HMAEPIAAGKYTVSTSGSVLNMRVSPDADSQVLEKIPNGTIVEVTKSVLGWAYVTYNSAQGWVSSAYLV = not satisfied
3) HMPTPRVPMSKQRQILQLLQDGHLSTREIAAALHISKTSVGDIAKAARLAGLDWEAASKLSDEELSARIYK = satisfied
4) HMKKSIRIFELMKAKVAAEIFDQMILEGKIEDVFDIIVRLKDSNVSNIMKTMSVENSSRLVQKLERYNKD = not satisfied
5) HMPEIFYRKIHRTDHDQIALDAEMIRLLIAIDEKKSLSQIAAEVQMEPMALKKNLGKLIQLGLVEPIK = not satisfied
6) HMEAKSSTKALLDVVLGRNGVSTANVAKSLNISVQNASTRLKKLSSEGVIMRSEVSSPTGGIEFIYS = satisfied
7) HMHMELHEKIRLARELNKWSQEEVAEKLEMSPSGYAKIERGETALNIPRLEQIAEIFNIDIWELVKA = not satisfied
8) HMAFAVWVKLVAIGPNYAQLEIEQGTQRNVRTLRPGDDAPEGVRLLSLTPTHAEVQANGIARKLALGQGMA = satisfied

Asked: Exam item: decide whether the reported soluble fraction (log2) for `HMTIFGWQTDETGKWYRNADGTFFEAGWKEIDGAKYYFDENGYVKTGWLELDGKDYYFDEEGRYDSSKVR` is at least -0.1.
Given back: not satisfied

Asked: Let us now turn to `HMKGWPDREQAEKIWQQGIDYAIEHHTMSPQIVKEYIFHTQGIARSAALIAARLPDMDTEKAYVLGLLHD`
Given back: satisfied

Asked: Let us now turn to `HMSYTPGQWVEASMPNATFFRIVPSGNATADKMLAVATPMKVISTSGTYVKVELDSGDVGFVPEIMV`
Given back: satisfied

Asked: Let us now turn to `HMKKNLELGLLPHEVKSILGEPDFIDTITDIDGIRYDMWSYTKLNVTKRLYFEDLFLVRMEE`
Given back: not satisfied

Asked: Let us now turn to `HMGEIHAQIPGLVSHLFVKEGNTVQVEQKLFILEAMKMENEIDSPIQGTVKRIHIATGSKVEKGDLIMEIS`
Given back: not satisfied

----------
Assay: soluble fraction after stress (log2 fold change); higher = more stays soluble; pooled small domains, quantitative proteomics
Conditions: stress: pH 4
Given measured soluble fraction (log2), output MET if it is greater than or equal to -0.5 and NOT MET if not.

Illustrative cases are given below, each with its answer.
1. HMASVDDILDRFKQAAKVTTDADLAKVLGLSRQSIAAARLRAKIPASWFPKMSSLFNISTEWLYRG = MET
2. HMALIGSNLRHLRNERKLSQQELADLIRVGRTTIANIEANLANPGHKTLLEIVKVFDITIDELLHTDLTK = NOT MET
3. HMYNKKAYVNTNSDFLNVRSEASTESSVVDKLARGTEVNIVGNIQNGFYPIVLNEKNAWVSSDWISFEKPT = MET
4. HMSEHLTLVVSDEDAGHRVDQFLVSRLAHMTRSQIQKLIKDGQVTIDTKLVRASTTVHTDNIVTIEFPPAV = MET
5. HMKFHENLIALRRREGWSQEELGNRIGVTRQTVSKWELGLTTPELEKLVQLADVFGMTTDQLVGR = MET
6. HMEPVQFIQFKIPDGHPWSGQLLREVRLPPGTLVVLLKHDGKNIIPNGETPLLAGDSVILSAASPT = MET
7. HMRTTTGSEGMIGSIGKAKTDLAPDGKIFIHGELWDATSSSPVSAGQKIEVTQIEGLKLHVKPVL = MET
8. HMDGVYLKSLKQTEQHIHWSGYAQSNAWVSTLMRNLDASPWFESPLLIEIKAATINNSRSNEFDLNVRL = MET

Asked: Exam item: decide whether the reported soluble fraction (log2) for `HMEGSVTVMVNGESVTMTGKQNYIFVDVFDWYSFDLSAGKGRAIATLVNGKEAEFSQPLANGDNIELYWKE` is at least -0.5.
Given back: NOT MET

Asked: Let us now turn to `HMFWEGYLAARREQFLKDQQVLLGNEFRSNPDFWLEVASKEWAVVEERLSTGADVSEEVQETMGLDF`
Given back: NOT MET

Asked: Let us now turn to `HMSLEEIPLEERLGPGGLDPVAVYDSLPREMRDAFDSGSVSALREFVNALPAEDAARHMKAMVDSGLWVPT`
Given back: NOT MET

Asked: Let us now turn to `HMAQQEMEIIPLRHRQVEQVMPTLRPLLEPGAALSGMNNQLILRASRKNREEIKQALAVIDT`
Given back: MET

----------
Test: soluble fraction after stress (log2 fold change); higher = more stays soluble; pooled small domains, quantitative proteomics
Settings: stress: pH 4
Given measured soluble fraction (log2), output fulfilled if it is greater than or equal to -0.7 and not fulfilled if not.

Illustrative cases are given below, each with its answer.
1) HMDPNAITSAQVTKLQVLANEKGFAERQARLTMWAEVIGRNVGTANELTKAEAHKLIEHMDALPV = fulfilled
2) HMEAYLPVTVVSDGKILTGNLEKAGKNEKWLENVLSELKTDVKNTLLLTVDPKDGLIFYPKG = fulfilled
3) HMTISAQAITPRLEVIKNFVLMEEWDAAQTQLEKLRSFTEIWSLDPLFSAMKKKDGQKISDWITGFIKDNM = not fulfilled

Asked: Exam item: decide whether the reported soluble fraction (log2) for `HMEHAETDTRERILVVAERLFRQLGYQKTTVADIAKELRMSPANVYRFFDSKKSIHEGVARTL` is at least -0.7.
Given back: fulfilled

Asked: Let us now turn to `HMETGNEDYRVGKELAYDGNYKAATIYLMKSIKDDPNNPDAFNMLGFSHRKLGNNDEAYIYYNKALEL`
Given back: not fulfilled

Asked: Let us now turn to `HMGVEKHLRITGTSTVSWKDAIVQAVAEASKTIDYLSNVKIIEQRARIDGKKLVEYFVDLDLSFVID`
Given back: fulfilled

Asked: Let us now turn to `HMEDEVSSSAAYQALLEKGVSKTLARSWVIDYGEAYVLDKVDLTTSQAARGKIKSSTAGFLKAAIEEDFHN`
Given back: not fulfilled

----------
Experiment: soluble fraction after stress (log2 fold change); higher = more stays soluble; pooled small domains, quantitative proteomics
Conditions: stress: pH 4
PARAMETER MEASURED: soluble fraction (log2)
Kindly provide the number alone.

1. HMNVPFGYTIKDGLLVEQPDEKAILDNILTWKKGQMTVAEIAKKTGMETWKIYGILNYWRNK = -0.438
2. HMGIVAGGTQSIATLRAIDTTDAQLYPDKILINVEDAGLYRLDRQSTATDDGNQVIKPTVGVGRWLKMTS = 0.0998
3. HMEASSTAIQAMIRRLIDDENPRKPLSDAKLADLLKSSGIPVARRTVAKYREAMNISASHERVRI = 0.17
4. HMVAPPILNITTHIFAEEADLRMVMINGVTRREGDSLGENHRLLEITERGLILIFHNKQYTLDV = -2.1
5. HMVIDETVLIDLFERLAEDDRPQRVAFRYILALVLLRKRTLQLIGREDEDDGEIWLLRFKGTDGEPIRV = -2.56

Asked: Given the sequence `HMLPSELLAQQRIVVQPGHNLWRIARATYGRGARYTVIYQANREQIADPNRIFPGQVFALPAA` , what is its reported soluble fraction (log2)?
Given back: -0.227

Asked: Let us now turn to `HMTVLVPNLTGKTLLEAEILLDQAGLKKGDVYSESNKNVPKDHIIRQKPAPNTKIQKGATIDIYRSLGPE`
Given back: -0.0793

Asked: Let us now turn to `HMQLVPGIGRLSARELEVFTLIGRGLGTSEIGKKLGVSAYTVQTHRNHIKEKLNLPNAAAITYWAIQWAHG`
Given back: -0.338

Asked: Let us now turn to `HMSNVIYFNYNDYKFLFMGDAGVDKETDILEKYTLSNIDFLKVGHHGSDTSSNKGFIDSIQPKYSLIS`
Given back: -1.42
